Data origin: patent US10413535B2

- Procedure Text: Toxicokinetics in 13-week topical ocular rabbit study
- Experimental Context: female, New Zealand White, in vivo, topical or ocular, 50 mg/mL/occasion, female rabbits, 50 mg/mL, 6 daily doses, Week 4, after the first daily dose

{"columns": ["Compound", "Tmax / min"],
 "data": [
  ["Cc1ccccc1OCC(=O)N[C@@H](CC(C)C)C(=O)N[C@@H](Cc1ccc(OC(=O)N2CCC(C(N)=O)CC2)cc1)C(=O)O [GW559090]", 4.98]
]}

---

- Procedure Text: Toxicokinetics in 13-week topical ocular dog study
- Experimental Context: male, beagle, in vivo, topical or ocular, 50 mg/mL/occasion, male dogs, 50 mg/mL, 6 daily doses, Week 13, read-out: AUC0-1

{"columns": ["Structure Smiles String", "AUC(0-t) / ng·h/mL"],
 "data": [
  ["Cc1ccccc1OCC(=O)N[C@@H](CC(C)C)C(=O)N[C@@H](Cc1ccc(OC(=O)N2CCC(C(N)=O)CC2)cc1)C(=O)O", 6.36]
]}
